Molecular target: T1, Activin A (Homo sapiens (Human), UniProt P08476 311-426)
T1 sequence: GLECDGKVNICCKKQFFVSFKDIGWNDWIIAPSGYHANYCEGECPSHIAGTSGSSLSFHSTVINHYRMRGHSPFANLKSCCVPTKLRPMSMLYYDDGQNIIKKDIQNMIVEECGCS
Experiment: Biacore SPR grade, COS transient conditioned media
Exercise: for every item that follows, state its recorded normalized SPR signal.

# input binder: ActRIIB-IgG1 Fc R40P, linker GGGGS (Fc fusion, Tested from conditioned media) SGRGEAETRECIYYNANWELEPTNQSGLERCEGEQDKRLHCYASWRNSSGTIELVKKGCWLDDFNCYDRQECVATEENPQVYFCCCEGNFCNERFTHLPEAGGPEVTYEPPPTAPTGGGGSAPELLGGPSVFLFPPKPKDILMISRTPEVTCVVVDVSHEDPEVKFNWYVGGVEVHNAKTKPREEQYNSTYRVVSVLTVLHQDWLNGKEYKCKVSNKALPAPIEKTISKAKGQPREPQVYTLPPSRDELTKNQVSLTCLVKGFYPSDIAVEWESNGQPENNYKTTPPVLDSDGSFFLYSKLTVDKSRWQQGNVFSCSVMHEALHNHYTQKSLSLSPGK ; wanted: its normalized SPR signal
< 5 ru

# input binder: ActRIIB-IgG1 Fc E28G, linker GGGGS (Fc fusion, Tested from conditioned media) SGRGEAETRGCIYYNANWELERTNQSGLERCEGEQDKRLHCYASWRNSSGTIELVKKGCWLDDFNCYDRQECVATEENPQVYFCCCEGNFCNERFTHLPEAGGPEVTYEPPPTAPTGGGGSAPELLGGPSVFLFPPKPKDILMISRTPEVTCVVVDVSHEDPEVKFNWYVGGVEVHNAKTKPREEQYNSTYRVVSVLTVLHQDWLNGKEYKCKVSNKALPAPIEKTISKAKGQPREPQVYTLPPSRDELTKNQVSLTCLVKGFYPSDIAVEWESNGQPENNYKTTPPVLDSDGSFFLYSKLTVDKSRWQQGNVFSCSVMHEALHNHYTQKSLSLSPGK ; wanted: its normalized SPR signal
< 5 ru

Attribution: patent US20130288983A1
